Target Desc: Glucagon-like peptide 1 receptor (Homo sapiens)
Assay Notes: qHTS of GLP-1 Receptor Agonists: LOPAC Validation (AID 624148);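 also: luminescence from a luciferase reporter switched on by cAMP; higher luminescence signal means agonism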
Conditions: GLP-1R agonist cell assay; series mostly up to 46.1 µM
Results filed as inconclusive are left out. Activity calls are given as the source filed them. Calls follow the shape of the dose curve; as a rule, active = well fitted curve in the direction sought with a large enough effect; inconclusive = small, poorly fitted or top-dose-only effect, or another doubt; inactive = no such curve, though single readings can be large or run the other way.
Value Type: outcome

Before answering, review these 6 worked examples.
CC1=NS(=O)(=O)c2cc(Cl)ccc2N1 = inactive
c1cc(CN2CCCCC2)cc(OCCCNc2nc3ccccc3s2)c1 = inactive
CN(C)C(=O)Oc1cccc([N+](C)(C)C)c1 = inactive
NC(Cc1ccc(Cl)cc1)C(=O)O (stereo unspecified) = inactive
CC(=O)[C@@]1(O)CC[C@H]2[C@@H]3CCC4=CC(=O)CC[C@]4(C)[C@H]3CC[C@@]21C = inactive
c1cnc(N2CCN(Cc3ccc4c(c3)OCO4)CC2)nc1 = inactive

Query :: I have this compound here, NC/C=C/C(=O)O , and I need its recorded outcome.
Result :: inactive

Query :: Name the reported outcome value associated with the compound CCCN(CCC)CCc1cccc2c1CC(=O)N2
Result :: inactive

Query :: Dear colleague, I am looking for the recorded outcome of the following compound: C[N+](C)(C)CCOC(=O)CCC(=O)OCC[N+](C)(C)C
Result :: inactive

Query :: Report outcome for NC(=O)N1c2ccccc2C=Cc2ccccc21 please.
Result :: inactive

Query :: I am curious: what outcome value has been reported for CC(=O)Nc1nnc(S(N)(=O)=O)s1 ?
Result :: inactive

Query :: # lookup: outcome of CN(C)CCOC(=O)COc1ccc(Cl)cc1
Result :: inactive

Query :: Dear colleague, I am looking for the recorded outcome of the following compound: CCO/C([O-])=N/c1c[n+](N2CCOCC2)no1
Result :: inactive

Query :: Return reported outcome; argument: CCCOc1ccccc1-c1nc2n[nH]nc2c(=O)[nH]1
Result :: inactive

Query :: For the compound CN(C)CC[C@@H](c1ccc(Br)cc1)c1ccccn1 , what outcome is on record?
Result :: inactive

Query :: Name the recorded outcome for CN/C(=C\[N+](=O)[O-])NCCSCc1ccc(CN(C)C)o1 .
Result :: inactive

Query :: What does the record list as outcome for CCn1cc(C(=O)O)c(=O)c2cc3c(cc21)OCO3 ?
Result :: inactive

Query :: Look up outcome for this compound: CCCCNC(=O)NS(=O)(=O)c1ccc(C)cc1
Result :: inactive
